Where do the numbers come from? From ChEMBL document CHEMBL1221213.

Could you please report measured pKi for the items listed next?
Biological target: Indoleamine 2,3-dioxygenase 1 (Homo sapiens, UniProt P14902)
Sequence (P14902 whole entry): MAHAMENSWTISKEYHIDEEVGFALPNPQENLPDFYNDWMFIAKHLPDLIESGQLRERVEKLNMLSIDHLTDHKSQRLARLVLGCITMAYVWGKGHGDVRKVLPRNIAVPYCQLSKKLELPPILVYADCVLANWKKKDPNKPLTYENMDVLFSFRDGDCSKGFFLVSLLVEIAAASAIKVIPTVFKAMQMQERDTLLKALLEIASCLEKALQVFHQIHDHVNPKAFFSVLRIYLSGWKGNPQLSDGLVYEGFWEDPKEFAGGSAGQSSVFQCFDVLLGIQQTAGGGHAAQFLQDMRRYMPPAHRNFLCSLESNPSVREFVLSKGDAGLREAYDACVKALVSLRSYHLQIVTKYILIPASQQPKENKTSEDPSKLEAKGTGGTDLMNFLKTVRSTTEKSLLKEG
Assay: Inhibition of human recombinant indoleamine-2,3-dioxygenase
Please note pKi is a logarithmic value: minus log10 of concentration in mol/L. Answer with that number alone.

The compound CN1C(=O)N(C)[C@]2(Oc3c(O)cc4c(c3C3=C2C(=O)c2c(CCN)c[nH]c2C3=O)[C@H](O)C[N+]4(C)C)C1=O [EXIGUAMINE B] showed pKi equal to 7.10

Per the record, CN(C)CCc1ccc(O)c(O)c1C1=C(C2C(=O)N(C)C(=O)N2C)C(=O)c2c(CCN)c[nH]c2C1=O (configuration not stated) has pKi of 7.10
